Taken from PubChem BioAssay.

Reported inhibition values follow for various compounds
# assay.info: TLR3 IRF3 reporter activation blockers – cell-based, poly I:C stimulus, luciferase, 10K MLSCN set, primary screen (AID 602277)
# condition.summary: HEK293-TLR3 RL24 IRF3 luciferase reporter, at 10 µM, stronger effect = higher value
Write the value in % as a bare number.

Query: Could you tell me which inhibition is on file for Cc1ccc(NC(=O)C2CCCNC2=O)nc1 (centres undefined) ?
Result: -1.11

* * *

Reported nuclei count values are given for each entry in this list.
# assay.info: endothelial E-selectin expression blockers – imaging, HUVEC, immunofluorescence, MLSMR starter and 10KST1 sets, primary screen (AID 487);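 also: 100% = median nuclei count of all wells on the same plate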
# condition.summary: HUVEC TNFalpha-induced E-selectin immunofluorescence imaging, at 2 µM; measured here: cell number, toxicity
Response body: numeric value in %, unit text excluded.

Answered cases to consult:
compound: O=C1c2ccccc2C(=O)N1OCc1ccccc1
nuclei count / %: 126
--
compound: Cn1c(=O)c(-c2ccccc2)nn2c3ccccc3nc12
nuclei count / %: 113
--
compound: COC(=O)c1cc(NS(=O)(=O)c2ccc3c(c2)CCC(=O)N3)cc(C(=O)OC)c1
nuclei count / %: 115
--
compound: CCC(=O)/C=C1\Sc2ccc(OC)cc2N1CCO
nuclei count / %: 85.1

Query: Recorded nuclei count of COc1ccc(OC)c(CNC(=O)CCN2C(=O)COc3ccccc32)c1 , please.
Result: 110

Query: Would you kindly repeat that for CN(CCCC(=O)Nc1ccncc1)S(=O)(=O)c1ccc(Cl)cc1 ?
Result: 127

Query: One more compound: COc1ccc2oc(C)c(C(=O)Cn3ccnc3)c2c1
Result: 108

Query: Do the same for CC(C)=CCCC(C)NC(=O)NC1CCCCC1 (centres undefined) please
Result: 87

Query: Also, Cc1ccc(Cn2nnc3c(=O)n(CC(=O)NCC4CCCO4)cnc32)cc1 (centres undefined) please.
Result: 98.4

Query: Please do the same for CN1CCN(CCCNC(=O)C2CC(=O)N(C3CCCCC3)C2)CC1 (centres undefined) as well.
Result: 89.4

Query: What would you report for CCOC(=O)CSc1nnc(CNC(=O)c2ccc(OC)c(OC)c2)n1C ?
Result: 128

Query: Moving on to O=C(NC1CCCC1)c1ccc(S(=O)(=O)N2CCCC2)cc1
Result: 120
